meta.source: patent US20220372040A1

Reported pIC50 values follow for various compounds
# Study Target: METTL3/METTL14 (Homo sapiens, UniProt Q86U44)
# Sequence (Q86U44 whole entry, species assumed): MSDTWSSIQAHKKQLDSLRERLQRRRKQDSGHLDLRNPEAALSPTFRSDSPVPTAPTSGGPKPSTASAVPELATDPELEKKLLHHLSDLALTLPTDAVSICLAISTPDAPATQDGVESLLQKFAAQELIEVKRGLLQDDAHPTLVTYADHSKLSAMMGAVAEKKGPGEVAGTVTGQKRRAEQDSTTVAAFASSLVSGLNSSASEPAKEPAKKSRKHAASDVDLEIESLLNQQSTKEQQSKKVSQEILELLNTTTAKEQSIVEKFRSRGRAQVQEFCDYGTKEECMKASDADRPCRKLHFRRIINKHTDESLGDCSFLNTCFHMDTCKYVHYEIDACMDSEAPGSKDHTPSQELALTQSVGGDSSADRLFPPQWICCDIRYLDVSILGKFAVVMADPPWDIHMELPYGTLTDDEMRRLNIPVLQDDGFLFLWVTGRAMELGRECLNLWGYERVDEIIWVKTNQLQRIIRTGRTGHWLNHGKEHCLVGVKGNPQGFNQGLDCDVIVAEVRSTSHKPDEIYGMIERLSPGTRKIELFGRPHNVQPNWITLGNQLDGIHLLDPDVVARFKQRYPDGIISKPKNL
# Sequence (Q9HCE5 whole entry partner, species assumed): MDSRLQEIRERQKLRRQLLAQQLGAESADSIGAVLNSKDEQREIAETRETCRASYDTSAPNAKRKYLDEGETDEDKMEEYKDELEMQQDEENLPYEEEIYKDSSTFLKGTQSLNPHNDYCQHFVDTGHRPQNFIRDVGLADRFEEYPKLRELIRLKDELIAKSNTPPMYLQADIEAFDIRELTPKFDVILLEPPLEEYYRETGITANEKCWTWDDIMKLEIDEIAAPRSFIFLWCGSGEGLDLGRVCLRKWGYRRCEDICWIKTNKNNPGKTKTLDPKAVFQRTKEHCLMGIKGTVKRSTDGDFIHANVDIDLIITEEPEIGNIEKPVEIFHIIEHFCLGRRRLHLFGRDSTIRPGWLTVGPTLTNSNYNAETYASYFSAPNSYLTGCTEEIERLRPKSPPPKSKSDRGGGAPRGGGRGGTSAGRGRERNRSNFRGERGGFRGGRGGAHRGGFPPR
# Experiment: METTL3-14 standard enzyme assay (3H-SAM flashplate scintillation)
# Run Conditions: METTL3/METTL14 2.5 nM, RNA 100 nM, 3H-SAM 100 nM, 30 min
pIC50: −log10 of the molar value.
Assay Metric: pIC50

> print(dat)
                                    compound  reported.measurement
 1  Nc1ncnc2c1c(Cl)cn2-c1cccc(COc2ccc3ccc(N4CCCC4)nc3c2)c1                < 6.00
 2  CCc1cc(NCCN(C)C)c2ccc(OCc3cncc(-n4ccc5c(N)ncnc54)c3)cc2n1                > 8.00
 3  CNc1ccc2ccc(OCc3cncc(-n4c(C)cc5c(N)ncnc54)c3)cc2n1          7.00 to 8.00
 4  CN(Cc1cncc(-n2cc(-c3ccn(C)n3)c3c(N)ncnc32)c1)CC1CC1                < 6.00
 5  CCNc1ccc2ccc(CCc3cncc(-n4cc([C@H]5CCCO5)c5c(N)ncnc54)c3)cc2n1                > 8.00
 6  CC(C)c1cc(N)c2ccc(CCc3cncc(-n4ccc5c(N)ncnc54)c3)cc2n1          7.00 to 8.00
 7  CCc1cc(N2CCNCC2)c2ccc(OCc3cncc(-n4cc([C@H]5CCCO5)c5c(N)ncnc54)c3)cc2n1          7.00 to 8.00
 8  CN(C)CCNC(=O)c1ccc(OCc2cncc(-n3ccc4c(N)ncnc43)c2)cc1N                < 6.00
 9  CC(=O)NC1CN(c2ccc3ccc(OCc4cncc(-n5cc(-c6ccn(C)n6)c6c(N)ncnc65)c4)cc3n2)C1          7.00 to 8.00
10  Cn1ccc(-c2cn(-c3cncc(COc4ccc5ccc(N6CC(O)C6)nc5c4)c3)c3ncnc(N)c23)n1                > 8.00
11  CCc1cc(N(C)C2CC2)c2ccc(OCc3cncc(-n4cc([C@@H]5CCCO5)c5c(N)ncnc54)c3)cc2n1                > 8.00
12  CCc1cc(N)c2ccc(OCc3cncc(-n4cc(C5CCCC5)c5c(N)ncnc54)c3)cc2n1                > 8.00
13  CS(=O)(=O)c1cn(-c2cncc(COc3ccc4ccc(N5CCC5)nc4c3)c2)c2ncnc(N)c12          7.00 to 8.00
14  Cn1ccc(-c2cn(-c3cncc(COc4ccc5ccc(N6CCOCC6)nc5c4)c3)c3ncnc(N)c23)n1          7.00 to 8.00
15  Cc1cc(N)c2ccc(OCc3cncc(-n4cc(Cl)c5c(N)ncnc54)c3)cc2n1          7.00 to 8.00
16  CNc1cc(CCCN2CCOCC2)c2ccc(OCc3cncc(-n4ccc5c(N)ncnc54)c3)cc2n1                > 8.00
17  CNc1ccc2ccc(OCc3cncc(-n4cc(C5CCC(F)(F)CC5)c5c(N)ncnc54)c3)cc2n1          7.00 to 8.00
18  CCc1cc(NCCOC)c2ccc(OCc3cncc(-n4ccc5c(N)ncnc54)c3)cc2n1                > 8.00
19  CCc1cc(N2CCNCC2)c2ccc(OCc3cncc(-n4cc([C@@H]5CCCO5)c5c(N)ncnc54)c3)cc2n1                > 8.00
20  Cn1ccc(-c2cn(-c3cncc(COc4ccc5cnc(N6CCC6)nc5c4)c3)c3ncnc(N)c23)n1                < 6.00
21  CCc1cc(NCCOC)c2ncc(OCc3cncc(-n4cc([C@@H]5CCCO5)c5c(N)ncnc54)c3)cc2n1                > 8.00
22  CNc1ccc2ccc(OCc3cncc(-n4ccc5c(N)ncnc54)c3)cc2n1                > 8.00
23  Nc1ncnc2c1c(C1CCCO1)cn2-c1cncc(CCc2ccc3ccc(N4CCC4)nc3c2)c1 (stereo not drawn)                > 8.00
24  CNc1ccc2ccc(CN(C)c3cccc(-n4cc(Br)c5c(N)ncnc54)c3)cc2n1                < 6.00
25  CCc1cc(NC)c2ccc(OCc3cncc(-n4cc(-c5ccn(C)n5)c5c(N)ncnc54)c3)cc2n1                > 8.00
26  CCc1cc(N)c2ccc(OCc3cncc(-n4ccc5c(N)ncnc54)c3)cc2n1                > 8.00
27  CCc1cc(N(C)C2CC2)c2ccc(OCc3cncc(-n4cc([C@@H]5CCCO5)c5c(N)ncnc54)n3)cc2n1          7.00 to 8.00
28  CNc1ccc2ccc(OCc3cc(CO)cc(-c4c[nH]c5c(N)ncnc45)c3)cc2n1                > 8.00
29  CCc1cc(NCCOC)c2c(F)cc(OCc3cncc(-n4cc([C@@H]5CCCO5)c5c(N)ncnc54)c3)cc2n1          7.00 to 8.00
30  CNc1ccc2ccc(OCc3ncc(-n4cc(Cl)c5c(N)ncnc54)s3)cc2n1                < 6.00
